B1: Hairpin Ribozyme (parent)
chain: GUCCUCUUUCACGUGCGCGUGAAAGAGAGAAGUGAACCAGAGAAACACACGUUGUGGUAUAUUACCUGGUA

- Variants of: B1
- assay.summary: self-cleavage, relative activity (ratio to wild type); higher = more cleavage; co-transcriptional
Outcome: met for self-cleavage of at least 0.2; not met for anything lower.

Answered cases to consult:
{"mutation.string": "G13U A41C", "group.label": "met"}
{"mutation.string": "G29U C37U", "group.label": "not met"}
{"mutation.string": "G15U A22G", "group.label": "met"}
{"mutation.string": "C3G A45U", "group.label": "not met"}
{"mutation.string": "A35G U62C", "group.label": "met"}
{"mutation.string": "A30C U67A", "group.label": "not met"}
{"mutation.string": "C48U G51U", "group.label": "not met"}
{"mutation.string": "C6U U7C", "group.label": "met"}
{"mutation.string": "A36C G40C", "group.label": "not met"}
{"mutation.string": "U60G A71U", "group.label": "met"}

Data request: # bool: self-cleavage of A24G C66U >= 0.2
Data returned: met

Data request: # bool: self-cleavage of C3U U58C >= 0.2
Data returned: met

Data request: # bool: self-cleavage of A35C G54C >= 0.2
Data returned: met

Data request: # bool: self-cleavage of A11U A59G >= 0.2
Data returned: not met

Data request: # bool: self-cleavage of A28U U52G >= 0.2
Data returned: met

Data request: # bool: self-cleavage of C3G G42A >= 0.2
Data returned: not met

Data request: # bool: self-cleavage of A28U U67A >= 0.2
Data returned: not met

Data request: # bool: self-cleavage of U2A C18G >= 0.2
Data returned: met

Data request: # bool: self-cleavage of C18A G57C >= 0.2
Data returned: not met

Data request: # bool: self-cleavage of G29C A45C >= 0.2
Data returned: met

Data request: # bool: self-cleavage of C4U U7C >= 0.2
Data returned: not met

Data request: # bool: self-cleavage of C18U U70C >= 0.2
Data returned: met
